System: 616215-338-R-J1-PDC complex spheroid viability;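 further: spheroids exposed to agents for seven days before viability readout; 100% = DMSO vehicle control viability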
Experiment: Anticancer human tumor 616215-338-R-J1-PDC patient-derived colon adenocarcinoma cell line growth inhibition [RAS]
Conditions: second compound 0.316 µM; first compound 0.316 µM; active compounds read low
property.measured: viability, T/C (%)
Give the number; % is assumed, so skip it.

Ask | Find viability, T/C (616215-338-R-J1-PDC complex spheroid viability) for the entry C[C@@H](NC(=O)c1ncnc(N)c1Cl)c1ncc(C(=O)Nc2cc(C(F)(F)F)c(Cl)cn2)s1 + C=CC(=O)N1CCN(c2nc(OCC3CCCN3C)nc3c(F)c(-c4nc(N)cc(C)c4C(F)(F)F)c(Cl)cc23)C(C)C1
Reply | 113

Ask | Another compound to look at: CC(=O)OC12COC1CC(O)C1(C)C(=O)C(O)C3=C(C)C(OC(=O)C(O)C(NC(=O)OC(C)(C)C)c4ccccc4)CC(O)(C(OC(=O)c4ccccc4)C21)C3(C)C (centres undefined) + C#Cc1c(F)ccc2cc(O)cc(-c3ncc4c(N5CC6CCC(C5)N6)nc(OCC56CCCN5CC(F)C6)nc4c3F)c12
Reply | 18

Ask | Another compound to look at: O=C(c1ccc(F)c(F)c1Nc1ccc(I)cc1F)N1CC(O)([C@@H]2CCCCN2)C1 + C=CC(=O)N1CCN(c2nc(OCC3CCCN3C)nc3c(F)c(-c4nc(N)cc(C)c4C(F)(F)F)c(Cl)cc23)C(C)C1
Reply | 13.9

Ask | Another compound to look at: C=CC(=O)N1CCN(c2nc(OCC3CCCN3C)nc3c(F)c(-c4nc(N)cc(C)c4C(F)(F)F)c(Cl)cc23)C(C)C1 (centres undefined) + C#Cc1c(F)ccc2cc(O)cc(-c3ncc4c(N5CC6CCC(C5)N6)nc(OCC56CCCN5CC(F)C6)nc4c3F)c12
Reply | 107

Ask | Another compound to look at: CC1(O)CCCC1n1c(=O)c(C(F)F)cc2cnc(NC3CCN(S(C)(=O)=O)CC3)nc21 (centres undefined) + C=CC(=O)N1CCN(c2nc(OCC3CCCN3C)nc3c(F)c(-c4nc(N)cc(C)c4C(F)(F)F)c(Cl)cc23)C(C)C1
Reply | 54.8

Ask | Another compound to look at: CC(C)NCC(C(=O)N1CCN(c2ncnc3c2C(C)CC3O)CC1)c1ccc(Cl)cc1 (centres undefined) + C#Cc1c(F)ccc2cc(O)cc(-c3ncc4c(N5CC6CCC(C5)N6)nc(OCC56CCCN5CC(F)C6)nc4c3F)c12
Reply | 110

Ask | Another compound to look at: CCN1CCN(Cc2ccc(Nc3ncc(F)c(-c4cc(F)c5nc(C)n(C(C)C)c5c4)n3)nc2)CC1 + C#Cc1c(F)ccc2cc(O)cc(-c3ncc4c(N5CC6CCC(C5)N6)nc(OCC56CCCN5CC(F)C6)nc4c3F)c12
Reply | 112

Ask | Another compound to look at: NC1c2ccccc2OC12CCN(c1cnc3c(N4CCCc5ncccc54)n[nH]c3n1)CC2 (centres undefined) + C=CC(=O)N1CCN(c2nc(OCC3CCCN3C)nc3c(F)c(-c4nc(N)cc(C)c4C(F)(F)F)c(Cl)cc23)C(C)C1
Reply | 91.4

Ask | Another compound to look at: CC(C)NCC(C(=O)N1CCN(c2ncnc3c2C(C)CC3O)CC1)c1ccc(Cl)cc1 (centres undefined) + C=CC(=O)N1CCN(c2nc(OCC3CCCN3C)nc3c(F)c(-c4nc(N)cc(C)c4C(F)(F)F)c(Cl)cc23)C(C)C1
Reply | 104
